Molecular target: Epidermal growth factor receptor (Homo sapiens) (UniProt P00533)
Sequence (P00533 whole entry, looked up): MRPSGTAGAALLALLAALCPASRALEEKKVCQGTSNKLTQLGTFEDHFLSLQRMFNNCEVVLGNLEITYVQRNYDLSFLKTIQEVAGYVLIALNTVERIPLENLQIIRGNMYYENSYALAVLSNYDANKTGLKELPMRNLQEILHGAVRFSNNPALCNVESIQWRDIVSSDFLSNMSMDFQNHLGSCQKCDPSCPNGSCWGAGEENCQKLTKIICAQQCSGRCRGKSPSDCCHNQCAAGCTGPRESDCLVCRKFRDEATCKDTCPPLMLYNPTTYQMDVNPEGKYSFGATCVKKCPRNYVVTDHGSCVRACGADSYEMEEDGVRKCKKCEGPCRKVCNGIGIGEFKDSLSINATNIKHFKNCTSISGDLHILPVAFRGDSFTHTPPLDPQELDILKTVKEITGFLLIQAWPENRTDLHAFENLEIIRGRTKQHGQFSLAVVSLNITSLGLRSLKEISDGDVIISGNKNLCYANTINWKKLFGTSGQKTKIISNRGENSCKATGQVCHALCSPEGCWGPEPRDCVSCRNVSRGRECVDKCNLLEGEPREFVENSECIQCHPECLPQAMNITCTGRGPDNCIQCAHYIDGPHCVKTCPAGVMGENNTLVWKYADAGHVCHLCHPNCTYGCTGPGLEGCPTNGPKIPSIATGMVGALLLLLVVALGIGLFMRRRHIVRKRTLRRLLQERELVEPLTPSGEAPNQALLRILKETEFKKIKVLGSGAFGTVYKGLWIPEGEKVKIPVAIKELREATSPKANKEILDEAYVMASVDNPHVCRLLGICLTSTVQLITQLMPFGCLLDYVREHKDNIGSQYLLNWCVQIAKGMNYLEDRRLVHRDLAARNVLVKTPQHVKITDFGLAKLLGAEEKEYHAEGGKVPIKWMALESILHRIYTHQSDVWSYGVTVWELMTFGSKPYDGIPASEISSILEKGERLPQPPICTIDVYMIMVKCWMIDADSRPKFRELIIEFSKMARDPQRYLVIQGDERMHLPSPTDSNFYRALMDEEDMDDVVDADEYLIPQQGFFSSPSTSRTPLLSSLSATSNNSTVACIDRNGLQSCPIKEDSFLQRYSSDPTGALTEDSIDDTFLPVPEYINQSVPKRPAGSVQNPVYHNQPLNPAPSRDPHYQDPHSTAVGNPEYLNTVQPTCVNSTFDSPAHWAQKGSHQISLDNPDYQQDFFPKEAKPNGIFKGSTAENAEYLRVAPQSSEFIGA
Test: EGFR binders on small-molecule microarrays, primary screen, biochemical, small-molecule microarray, 635 nm fluorescence (AID 1104);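 also: score merges 667 nm emission intensity with spot signal to noise over triplicate slides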
Conditions: EGFR binding, higher = more signal
Outcome Measure: composite z-score

{"Structure Notation": "C=CCNC(=O)[C@@H]1[C@H]2C(=O)O[C@H](c3ccccc3)[C@H](c3ccccc3)N2[C@H](c2ccccc2OCCO)[C@@]12C(=O)N(C(=O)OCCOC)c1ccc(C#CCCO)cc12", "Target Entity": "Epidermal growth factor receptor (Homo sapiens) (UniProt P00533)", "Measured Result": 0.266}
{"Structure Notation": "CN(C)CCCNC(=O)[C@@H]1c2ccccc2C(=O)N(C2Cc3ccccc3C2)[C@H]1c1ccc(CO)cc1", "Target Entity": "Epidermal growth factor receptor (Homo sapiens) (UniProt P00533)", "Measured Result": -0.741}
{"Structure Notation": "COCCOC(=O)N1C(=O)[C@@]2(c3cc(C#CC4(O)CCCCCC4)ccc31)[C@H](C(=O)NC[C@H](O)c1ccccc1)[C@H]1C(=O)O[C@H](c3ccccc3)[C@H](c3ccccc3)N1[C@@H]2c1ccc(O)cc1", "Target Entity": "Epidermal growth factor receptor (Homo sapiens) (UniProt P00533)", "Measured Result": -0.0406}

====

Biological target: Streptavidin (Streptomyces avidinii)
Experiment: streptavidin binders on small-molecule microarray, primary screen, artefact control for SMM compound annotation, biophysical, 635/667 nm fluorescence (AID 1147);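 also: signal reflects streptavidin binding to arrayed compounds as a control protein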
Details: streptavidin binding, higher = more signal
Response field class: enum, chosen by comparing composite z-score against low: < -0.1; medium: ≥ -0.1 and < 0.4; high: ≥ 0.4

{"Molecule": "C[C@]1(C(=O)NCC(F)(F)F)c2ccccc2C(=O)N(Cc2ccc(OC(F)(F)F)cc2)[C@H]1c1ccc(CO)cc1", "Target Entity": "Streptavidin (Streptomyces avidinii)", "Qualitative Label": "medium"}
{"Molecule": "COc1ccc(CCNC(=O)[C@@]2(C)c3ccccc3C(=O)N(Cc3cc(C(F)(F)F)cc(C(F)(F)F)c3)[C@H]2c2ccc(CO)cc2)cc1", "Target Entity": "Streptavidin (Streptomyces avidinii)", "Qualitative Label": "low"}
{"Molecule": "CCOC(=O)C[C@H]1[C@H](OC(=O)c2ccc(-c3ccccc3)cc2)[C@@H](NC(=O)CC(C)C)c2cc(OCCCO)ccc2N1C(=O)Cc1ccc(OC)cc1", "Target Entity": "Streptavidin (Streptomyces avidinii)", "Qualitative Label": "high"}
{"Molecule": "COC(=O)C1(CC(C)C)C=C2C(=C(C(C)C)C(=O)C2C)CN1 (stereo not drawn)", "Target Entity": "Streptavidin (Streptomyces avidinii)", "Qualitative Label": "low"}
{"Molecule": "C=C(/C(=C/C[C@H](OC(=O)c1ccncc1)c1ccccc1OCCO)c1cc(C(=O)OC)ccc1OC)C(C)C", "Target Entity": "Streptavidin (Streptomyces avidinii)", "Qualitative Label": "medium"}
{"Molecule": "COC(=O)Cn1c(C(=O)N(C)C)cc2c1C[C@H]1CN(C(=O)c3ccccc3)[C@@](Cc3ccc(OC)cc3)(C(=O)OC)[C@@H]21", "Target Entity": "Streptavidin (Streptomyces avidinii)", "Qualitative Label": "high"}
{"Molecule": "COCCOC(=O)N1C(=O)[C@@]2(c3ccccc31)[C@H](c1ccc(OCCO)cc1)N1[C@H](c3ccccc3)[C@H](c3ccccc3)OC(=O)[C@H]1[C@@H]2C(=O)N1CCN(c2ncccn2)CC1", "Target Entity": "Streptavidin (Streptomyces avidinii)", "Qualitative Label": "high"}
{"Molecule": "CC(C)(C)OC(=O)CC[C@]1(C(N)=O)N=C(c2ccc(OCCCO)cc2)O[C@H]1c1ccccc1CN=[N+]=[N-]", "Target Entity": "Streptavidin (Streptomyces avidinii)", "Qualitative Label": "high"}
{"Molecule": "COc1cc2c(cc1O)C(C1CC1)N(Cc1ccc([N+](=O)[O-])o1)CC2 (stereo not drawn)", "Target Entity": "Streptavidin (Streptomyces avidinii)", "Qualitative Label": "high"}
{"Molecule": "C[N+](C)(C)CCCC[C@@H]1NC(=O)[C@H]2C[C@@H](C(=O)NCCCCCNC(=O)CS)[C@@H](c3ccc(O)cc3)N2C1=O", "Target Entity": "Streptavidin (Streptomyces avidinii)", "Qualitative Label": "medium"}
{"Molecule": "CC(=O)c1ccc(C(O)C2C=CC3C(=O)NC(=O)C3N2Nc2ccc(Cl)cc2Cl)cc1 (stereo not drawn)", "Target Entity": "Streptavidin (Streptomyces avidinii)", "Qualitative Label": "medium"}
{"Molecule": "C=CCNC(=O)[C@@H]1[C@H]2C(=O)O[C@H](c3ccccc3)[C@H](c3ccccc3)N2[C@H](c2ccc(O)cc2)[C@@]12C(=O)Nc1ccc(C#CC3(O)CCCCCC3)cc12", "Target Entity": "Streptavidin (Streptomyces avidinii)", "Qualitative Label": "low"}
{"Molecule": "CC(C)C[C@@H]1NC(=O)C([C@@H](C)OCc2ccccc2)NC(=O)[C@@]23C(=O)N[C@@H](Cc4ccccc4)C2[C@H](C)[C@@]2(C)O[C@H]2C3/C=C/CC/C=C/CNC1=O (stereo partly drawn)", "Target Entity": "Streptavidin (Streptomyces avidinii)", "Qualitative Label": "medium"}
{"Molecule": "C[N+](C)(C)CCCCCCNC(=O)[C@@H]1C[C@@H]2C(=O)N[C@@H](Cc3ccccc3)C(=O)N2[C@@H]1c1ccc(O)cc1", "Target Entity": "Streptavidin (Streptomyces avidinii)", "Qualitative Label": "medium"}
{"Molecule": "C/C=C/CN(C(=O)C#Cc1ccccc1)[C@H](CO[Si](C)(C)C(C)(C)C)c1ccccc1", "Target Entity": "Streptavidin (Streptomyces avidinii)", "Qualitative Label": "low"}
{"Molecule": "N#Cc1ccc(C(O)C2C=CC3C(=O)NC(=O)C3N2Nc2ccccn2)cc1 (stereo not drawn)", "Target Entity": "Streptavidin (Streptomyces avidinii)", "Qualitative Label": "medium"}
{"Molecule": "CC1CC/C=C\\[C@H]2OC34C=CCN(c5ccc(Cl)cc5)C(=O)[C@H]3N(CCCO)C(=O)[C@]4(C)C2C(=O)O1 (stereo partly drawn)", "Target Entity": "Streptavidin (Streptomyces avidinii)", "Qualitative Label": "low"}
{"Molecule": "Cc1c(-c2ccc(-c3ccc(Cl)c(Cl)c3)o2)nc(-c2ccccc2)c2c1CO[Si]2(C(C)C)C(C)C", "Target Entity": "Streptavidin (Streptomyces avidinii)", "Qualitative Label": "low"}
{"Molecule": "CC1(C)OC[C@@]23C=C(Br)[C@@H](C[C@H]12)[C@@]1(CO1)C3=O", "Target Entity": "Streptavidin (Streptomyces avidinii)", "Qualitative Label": "medium"}
{"Molecule": "CC(C)C[C@@H]1NC(=O)[C@H]2C[C@@H](C(=O)NCCCCCCNC(=O)CS)[C@@H](c3ccc(O)cc3)N2C1=O", "Target Entity": "Streptavidin (Streptomyces avidinii)", "Qualitative Label": "low"}
{"Molecule": "C=CCC(OC(C)=O)[C@@H]1[C@@H](N(Cc2ccc(-c3ccccc3)cc2)C(=O)c2ccc(C)cc2)c2cc(OCCCO)ccc2N1C(=O)c1ccc2ccccc2c1 (stereo partly drawn)", "Target Entity": "Streptavidin (Streptomyces avidinii)", "Qualitative Label": "medium"}
{"Molecule": "CCC(CC)C(O)C1C=CC2C(=O)N(C)C(=O)C2N1N1CCCCC1 (stereo not drawn)", "Target Entity": "Streptavidin (Streptomyces avidinii)", "Qualitative Label": "high"}
{"Molecule": "CN(C)CCCCNC(=O)[C@H]1C[C@H]2C(=O)NCC(=O)N2[C@H]1c1cccc(OCCO)c1", "Target Entity": "Streptavidin (Streptomyces avidinii)", "Qualitative Label": "low"}
{"Molecule": "C=C(CCCC)C(=O)CC[C@H](OC(C)=O)c1ccccc1OCCO", "Target Entity": "Streptavidin (Streptomyces avidinii)", "Qualitative Label": "low"}
{"Molecule": "O=C1O[C@@H](c2ccccc2)[C@@H](c2ccccc2)N2[C@@H](c3ccc(OCCO)cc3)[C@]3(C(=O)Nc4ccc(C#CCCO)cc43)[C@@H](C(=O)Nc3nc4ccccc4s3)[C@H]12", "Target Entity": "Streptavidin (Streptomyces avidinii)", "Qualitative Label": "high"}
{"Molecule": "C=CCN1C(=O)[C@]2(O[C@H](CCn3cc([C@H](O)c4ccccc4)nn3)[C@@H]([Si](C)(C)c3ccc(OC)cc3)[C@@H]2C)c2cc(N3C(=O)c4cccc5cccc3c45)ccc21", "Target Entity": "Streptavidin (Streptomyces avidinii)", "Qualitative Label": "high"}
{"Molecule": "C[C@H]1NC(=O)C([C@@H](C)OCc2ccccc2)NC(=O)[C@@]23C(=O)N[C@@H](Cc4ccccc4)C2[C@H](C)[C@@]2(C)O[C@H]2C3/C=C/C/C=C\\CNC1=O (stereo partly drawn)", "Target Entity": "Streptavidin (Streptomyces avidinii)", "Qualitative Label": "low"}
{"Molecule": "COCCOC(=O)N1C(=O)[C@@]2(c3cc(C#CCCO)ccc31)[C@H](c1ccc(O)cc1)N1[C@H](c3ccccc3)[C@H](c3ccccc3)OC(=O)[C@H]1[C@@H]2C(=O)N1CCc2cc(OC)c(OC)cc2C1", "Target Entity": "Streptavidin (Streptomyces avidinii)", "Qualitative Label": "medium"}
